Biological target: human CXCR4 receptor (Homo sapiens)
Construct: expressed in transfected cells
Sequence (P61073 whole entry): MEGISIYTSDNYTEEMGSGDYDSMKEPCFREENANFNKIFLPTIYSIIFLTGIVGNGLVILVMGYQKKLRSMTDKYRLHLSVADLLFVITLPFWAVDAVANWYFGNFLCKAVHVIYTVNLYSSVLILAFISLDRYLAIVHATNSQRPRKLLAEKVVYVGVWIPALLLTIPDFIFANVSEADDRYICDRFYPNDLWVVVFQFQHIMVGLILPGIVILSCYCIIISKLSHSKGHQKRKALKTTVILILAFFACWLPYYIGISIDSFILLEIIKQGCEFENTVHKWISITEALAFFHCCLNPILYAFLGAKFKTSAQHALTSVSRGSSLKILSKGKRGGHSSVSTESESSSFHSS
Experiment: Measurement of intracellular Ca+2 responses (FLIPR), antagonism of the SDF-1α response
Type: cell-based
Conditions: HEK-Gqi5 cells stably expressing human CXCR4; Fluo-4 FLIPR; antagonism of SDF-1α 1.9 nM (EC65); values in nM
Mark Fulfilled for IC50 under 400 nM, Not fulfilled if at or over.

Before answering, review these 5 worked examples.
- COc1cc2nc(SCCN(C)C)nc(NC3CCN(Cc4c(OCCN(C)C)cccc4N(C)C)CC3)c2cc1OC [Compound 231]: Fulfilled
- COc1cc2nc(NCCCN3CCCC3)nc(NC3CCN(Cc4ccccc4N(C)C)CC3)c2cc1OC [Compound 33]: Not fulfilled
- CCN(CC)CCCNc1nc(NC2CCN(Cc3c(OCCN(C)C)cccc3N(C)C)CC2)c2cc(OC)c(OC)cc2n1 [Compound 166]: Fulfilled
- COc1cccc(N(C)C)c1CN1CCC(Nc2nc(NCC3CCN(C)C3)nc3ccccc23)CC1 (stereo not drawn) [Compound 121]: Fulfilled
- CNCCCCNc1nc(NC2CCN(Cc3c(OC)cccc3N(C)C)CC2)c2ccccc2n1 [Compound 102]: Fulfilled

## Input Consider COc1cccc(N(C)C)c1CN1CCC(Nc2nc(NCCCO)nc3ccccc23)CC1 [Compound 99] . Does its IC50 lie strictly below 400 nM?
## Output Not fulfilled

## Input Determine if COc1cc2nc(NCCc3ncc[nH]3)nc(NC3CCN(Cc4c(OCCN(C)C)cccc4N(C)C)CC3)c2cc1OC [Compound 210] shows IC50 strictly lower than 400 nM.
## Output Fulfilled

## Input Hello, is IC50 of the following compound strictly smaller than 400 nM? COc1cc2nc(NCCN(C)C)nc(NC3CCN(Cc4c(OCCCN(C)C)cccc4N(C)C)CC3)c2cc1OC [Compound 203]
## Output Fulfilled

## Input Lab log: compare recorded IC50 with 400 nM; is it strictly lower for COc1cccc(N(C)C)c1CN1CCC(Nc2nc(NCC3CCCO3)nc3ccccc23)CC1 (stereo not drawn) [Compound 98] ?
## Output Not fulfilled
